- Tested on: Salmonella choleraesuis
- test: In vitro MIC, two-fold serial dilution in Brain-Heart Infusion Broth, Salmonella choleraesuis
- conditions_used: Salmonella enterica, read-out: MIC (minimum inhibitory concentration) Sal. choleraesuis
Each record here notes measured MIC.
Give the number; mg/L is assumed, so skip it.

Ask | Give MIC; test system Salmonella choleraesuis; molecule CCOC1(C)OCc2c1[n+]([O-])c1ccccc1[n+]2[O-] (stereo not shown)
Reply | 12.5

###

- System: Escherichia coli
- test: In vitro MIC, two-fold serial dilution in Brain-Heart Infusion Broth, Escherichia coli
- conditions_used: read-out: MIC (minimum inhibitory concentration) Esch. coli
observation_type: MIC (µg/mL)
Give the number; µg/mL is assumed, so skip it.

Below: 3 compounds and their reported MIC.
[[record]]
compound = "CC1(O)OCc2c1[n+]([O-])c1ccccc1[n+]2[O-] (stereo not shown)"
recorded_number = 1.56

[[record]]
compound = "COC1(C)OCc2c1[n+]([O-])c1ccccc1[n+]2[O-] (stereo not shown)"
recorded_number = 3.12

[[record]]
compound = "CCOC1(C)OCc2c1[n+]([O-])c1ccccc1[n+]2[O-] (stereo not shown)"
recorded_number = 12.5


Alright, here's another compound for you.
Ask | // Input: CC1(OCc2ccccc2)OCc2c1[n+]([O-])c1ccccc1[n+]2[O-] (stereo not shown) . Output its MIC only.
Reply | 12.5

###

- Tested on: Pasteurella multocida
- test: In vitro MIC, two-fold serial dilution in Brain-Heart Infusion Broth, Pasteurella multocida
- conditions_used: read-out: MIC (minimum inhibitory concentration) Past. multocida
observation_type: MIC (µg/mL)
Give the number; µg/mL is assumed, so skip it.

Below: 3 molecules and their reported MIC.
[[record]]
molecule = "CC1(OCc2ccccc2)OCc2c1[n+]([O-])c1ccccc1[n+]2[O-] (stereo not shown)"
readout_unit = "µg/mL"
recorded_number = 3.12

[[record]]
molecule = "COC1(C)OCc2c1[n+]([O-])c1ccccc1[n+]2[O-] (stereo not shown)"
readout_unit = "µg/mL"
recorded_number = 3.12

[[record]]
molecule = "CCOC1(C)OCc2c1[n+]([O-])c1ccccc1[n+]2[O-] (stereo not shown)"
readout_unit = "µg/mL"
recorded_number = 12.5


Alright, here's another molecule for you.
Ask | // Input: CC1(O)OCc2c1[n+]([O-])c1ccccc1[n+]2[O-] (stereo not shown) . Output its MIC only.
Reply | 12.5

###

- Test system: Salmonella choleraesuis
- test: In vivo protection of mice infected intraperitoneally with Salmonella choleraesuis
- conditions_used: oral (PO), multiple dosing, 25 mg./kg., percentage of animals which survive
- Procedure: In determining the in vivo activity of the compounds of the invention, the test compound is administered to mice which have been infected by intraperitoneal injection of a lethal inoculum of pathogenic bacteria. […] At the end of the test, the activity of a compound is assessed by counting the number of survivors among the treated animals, and expressing the activity of a compound as the percentage of animals which survive. […]
observation_type: Percentage protection Sal. choleraesuis PO (%)
Give the number; % is assumed, so skip it.

Ask | // Input: CC1(OCc2ccccc2)OCc2c1[n+]([O-])c1ccccc1[n+]2[O-] (stereo not shown) . Output its Percentage protection Sal. choleraesuis PO only.
Reply | 40

Ask | // Input: CCOC1(C)OCc2c1[n+]([O-])c1ccccc1[n+]2[O-] (stereo not shown) . Output its Percentage protection Sal. choleraesuis PO only.
Reply | 70

Ask | // Input: COC1(C)OCc2c1[n+]([O-])c1ccccc1[n+]2[O-] (stereo not shown) . Output its Percentage protection Sal. choleraesuis PO only.
Reply | 100

Ask | // Input: CC1(O)OCc2c1[n+]([O-])c1ccccc1[n+]2[O-] (stereo not shown) . Output its Percentage protection Sal. choleraesuis PO only.
Reply | 100
